Values were extracted from patent US20220002432A1.

binders and their reported EC50
Target system: T1, ICAM1 on the surface of DU145 cells (human, UniProt P05362 28-532)
T1 construct: whole, on cells
T1 sequence (P05362 28-532): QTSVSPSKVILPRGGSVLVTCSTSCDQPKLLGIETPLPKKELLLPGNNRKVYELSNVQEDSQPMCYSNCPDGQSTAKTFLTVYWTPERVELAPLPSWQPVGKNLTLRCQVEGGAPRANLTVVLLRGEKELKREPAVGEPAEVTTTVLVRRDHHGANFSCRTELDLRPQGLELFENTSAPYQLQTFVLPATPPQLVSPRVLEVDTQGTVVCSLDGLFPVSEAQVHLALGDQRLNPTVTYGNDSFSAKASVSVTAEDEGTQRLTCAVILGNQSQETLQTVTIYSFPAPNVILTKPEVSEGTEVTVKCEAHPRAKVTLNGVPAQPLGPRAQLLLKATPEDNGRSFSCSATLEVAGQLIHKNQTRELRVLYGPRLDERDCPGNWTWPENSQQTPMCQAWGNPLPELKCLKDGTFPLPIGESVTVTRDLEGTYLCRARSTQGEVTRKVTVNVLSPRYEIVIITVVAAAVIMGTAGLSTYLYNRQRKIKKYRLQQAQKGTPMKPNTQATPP
Assay protocol: flow cytometry, DU145 cells;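 note: purified antibodies in dilution series bound to cells for 1 h at 4 °C, detected with a fluorescent secondary antibody (1 h, 4 °C, dark), read by flow cytometry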
Quick note: give the figure in nM, leave out the unit.

Sample records with EC50:
Binder | Reported measurement
8H1 (antibody, human IgG1, kappa, V domains shown, Rabbit-human chimeric anti-ICAM1: rabbit VH and VL on human IgG1 and kappa constant regions) VH: QSVEESGGRLVTPGTPLTLTCTASGFSLSNYYMSWVRQAPGKGLEWIGIISDSGSTYYASWAKGRFTISKTSTTVDLKITSPTTEDTATYFCARDWSYDSSSGYYYYDMDLWGPGTLVTVSA VL: GYDMTQTPASVEVAVGGTVTIKCQASQSINSWLAWFQHKPGQPPKRLIYKASTLASGVSSRFKGSGSGTQFTLTISGVESADAATYYCQQGYSRSDGEHVFGGGTEVVVKR | 1.82
11G7 (antibody, human IgG1, kappa, V domains shown, Rabbit-human chimeric anti-ICAM1: rabbit VH and VL on human IgG1 and kappa constant regions) VH: QSVEESGGRLVTPGTPLTLTCTVSGFSLSDYYMSWVRQAPGKGLEWIGIISDSGSTYYASWAKGRFTISKTSSTTVDLKITSPTTEDTATYFCARDWSYDSSSGYYYYDMDLWGPGTLVTVSA VL: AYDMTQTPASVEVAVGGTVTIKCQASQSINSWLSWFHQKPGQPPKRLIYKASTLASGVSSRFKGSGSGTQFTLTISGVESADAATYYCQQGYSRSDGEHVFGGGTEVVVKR | 1.04

Then there is this binder:
The value of EC50 measured for the binder 4H5 (antibody, human IgG1, kappa, V domains shown, Rabbit-human chimeric anti-ICAM1: rabbit VH and VL on human IgG1 and kappa constant regions) VH: QSVEESGGRLVTPGTPLTLTCTASGFSLSNYYMSWVRQAPGKGLEWIGIISDSGTTYYASWAKGRFTISKTSTTVDLKITSPTTEDTATYFCARDWSYDSSSGYYYYDMDLWGPGTLVTVSA VL: GYDMTQTPASVEVAVGGTVTIKCQASQSINSWLVWFQHKPGQPPKRLIYKASTLASGVSSRFKGSGSGTHFTLTISGVESADAATYYCQQGYSRSDGEHVFGGGTEVVVKR turned out to be 1.31
